Kb overview
biological target: human OX1 receptors (Homo sapiens, UniProt O43613); test: Calcium mobilization Ke; assay type: cell-based
Sequence (O43613 whole entry): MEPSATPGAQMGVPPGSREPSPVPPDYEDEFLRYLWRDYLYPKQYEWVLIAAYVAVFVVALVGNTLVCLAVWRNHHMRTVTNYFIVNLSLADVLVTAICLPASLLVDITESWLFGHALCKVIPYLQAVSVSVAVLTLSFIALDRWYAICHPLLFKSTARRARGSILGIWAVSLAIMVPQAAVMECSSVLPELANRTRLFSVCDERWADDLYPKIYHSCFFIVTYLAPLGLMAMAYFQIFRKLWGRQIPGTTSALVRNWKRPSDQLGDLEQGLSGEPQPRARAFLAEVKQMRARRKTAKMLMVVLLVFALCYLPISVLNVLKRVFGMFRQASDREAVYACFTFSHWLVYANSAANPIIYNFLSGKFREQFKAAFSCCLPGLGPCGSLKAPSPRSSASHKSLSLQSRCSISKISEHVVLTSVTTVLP
Give just the numeric value; nM need not be written.

# COMPOUND, ASSAYED TARGET, OBSERVABLE, UNIT DESCRIPTOR, VALUE OBSERVED
measured = [
    ("COC(=O)Nc1ccc2c(c1)CCN(CC(=O)NCc1ccccc1)C2Cc1ccc(OC)c(OC)c1 (stereo not drawn) [23a]", "human OX1 receptors (Homo sapiens, UniProt O43613)", "Kb", "nM", 2400),
]

Item under review: CCOC(=O)CCNc1ccc2c(c1)CCN(CC(=O)NCc1ccccc1)C2Cc1ccc(OC)c(OC)c1 (stereo not drawn) [26c] . Reported Kb?
809

Item under review: COc1ccc(CC2c3ccc(NCc4ccccc4)cc3CCN2CC(=O)NCc2ccccc2)cc1OC (stereo not drawn) [25h] . Reported Kb?
1100

Item under review: COc1ccc(CC2c3ccc(NCCCC(=O)OC(C)(C)C)cc3CCN2CC(=O)NCc2ccccc2)cc1OC (stereo not drawn) [26e] . Reported Kb?
1010

====

Kb overview
target: human OX1 receptors (Homo sapiens, UniProt O43613); experiment: Calcium mobilization Ke; assay type: cell-based

Answered examples (5):
# MOLECULE, ASSAYED TARGET, Kb
measured = [
    ("COc1ccc(CC2c3ccc(OS(C)(=O)=O)cc3CCN2CC(=O)NCc2ccccc2)cc1OC (stereo not drawn) [18a]", "human OX1 receptors (Homo sapiens, UniProt O43613)", "> 10 µM"),
    ("CCCCCNc1ccc2c(c1)CCN(CC(=O)NCc1ccccc1)C2Cc1ccc(OC)c(OC)c1 (stereo not drawn) [25r]", "human OX1 receptors (Homo sapiens, UniProt O43613)", "> 10 µM"),
    ("COc1ccc(CC2c3ccc(NC(=O)Nc4ccccc4)cc3CCN2CC(=O)NCc2ccccc2)cc1OC (stereo not drawn) [28d]", "human OX1 receptors (Homo sapiens, UniProt O43613)", "> 10 µM"),
    ("COc1ccc(CC2c3ccc(NCc4ccncc4)cc3CCN2CC(=O)NCc2ccccc2)cc1OC (stereo not drawn) [25m]", "human OX1 receptors (Homo sapiens, UniProt O43613)", "> 10 µM"),
    ("CCCNc1ccc2c(c1)CCN(CC(=O)NCc1ccccc1)C2Cc1ccc(OC)c(OC)c1 (stereo not drawn) [25b]", "human OX1 receptors (Homo sapiens, UniProt O43613)", "> 10 µM"),
]

Item under review: COc1ccc(CC2c3ccc(N(C)Cc4ccccc4)cc3CCN2CC(=O)NCc2ccccc2)cc1OC (stereo not drawn) [25i] . Reported Kb?
> 10 µM

Item under review: COc1ccc(CC2c3ccc(OCc4ccccc4)cc3CCN2CC(=O)NCc2ccccc2)cc1OC (stereo not drawn) [17d] . Reported Kb?
> 10 µM

Item under review: COc1ccc(CC2c3ccc(NCC4CC4)cc3CCN2CC(=O)NCc2ccccc2)cc1OC (stereo not drawn) [25f] . Reported Kb?
> 10 µM

Item under review: COc1ccc(CC2c3ccc(OS(=O)(=O)c4ccccc4)cc3CCN2CC(=O)NCc2ccccc2)cc1OC (stereo not drawn) [18b] . Reported Kb?
> 10 µM
